# experimental-target: Sodium channel protein type 5 subunit alpha (Homo sapiens, UniProt Q14524)
# Sequence (Q14524 whole entry): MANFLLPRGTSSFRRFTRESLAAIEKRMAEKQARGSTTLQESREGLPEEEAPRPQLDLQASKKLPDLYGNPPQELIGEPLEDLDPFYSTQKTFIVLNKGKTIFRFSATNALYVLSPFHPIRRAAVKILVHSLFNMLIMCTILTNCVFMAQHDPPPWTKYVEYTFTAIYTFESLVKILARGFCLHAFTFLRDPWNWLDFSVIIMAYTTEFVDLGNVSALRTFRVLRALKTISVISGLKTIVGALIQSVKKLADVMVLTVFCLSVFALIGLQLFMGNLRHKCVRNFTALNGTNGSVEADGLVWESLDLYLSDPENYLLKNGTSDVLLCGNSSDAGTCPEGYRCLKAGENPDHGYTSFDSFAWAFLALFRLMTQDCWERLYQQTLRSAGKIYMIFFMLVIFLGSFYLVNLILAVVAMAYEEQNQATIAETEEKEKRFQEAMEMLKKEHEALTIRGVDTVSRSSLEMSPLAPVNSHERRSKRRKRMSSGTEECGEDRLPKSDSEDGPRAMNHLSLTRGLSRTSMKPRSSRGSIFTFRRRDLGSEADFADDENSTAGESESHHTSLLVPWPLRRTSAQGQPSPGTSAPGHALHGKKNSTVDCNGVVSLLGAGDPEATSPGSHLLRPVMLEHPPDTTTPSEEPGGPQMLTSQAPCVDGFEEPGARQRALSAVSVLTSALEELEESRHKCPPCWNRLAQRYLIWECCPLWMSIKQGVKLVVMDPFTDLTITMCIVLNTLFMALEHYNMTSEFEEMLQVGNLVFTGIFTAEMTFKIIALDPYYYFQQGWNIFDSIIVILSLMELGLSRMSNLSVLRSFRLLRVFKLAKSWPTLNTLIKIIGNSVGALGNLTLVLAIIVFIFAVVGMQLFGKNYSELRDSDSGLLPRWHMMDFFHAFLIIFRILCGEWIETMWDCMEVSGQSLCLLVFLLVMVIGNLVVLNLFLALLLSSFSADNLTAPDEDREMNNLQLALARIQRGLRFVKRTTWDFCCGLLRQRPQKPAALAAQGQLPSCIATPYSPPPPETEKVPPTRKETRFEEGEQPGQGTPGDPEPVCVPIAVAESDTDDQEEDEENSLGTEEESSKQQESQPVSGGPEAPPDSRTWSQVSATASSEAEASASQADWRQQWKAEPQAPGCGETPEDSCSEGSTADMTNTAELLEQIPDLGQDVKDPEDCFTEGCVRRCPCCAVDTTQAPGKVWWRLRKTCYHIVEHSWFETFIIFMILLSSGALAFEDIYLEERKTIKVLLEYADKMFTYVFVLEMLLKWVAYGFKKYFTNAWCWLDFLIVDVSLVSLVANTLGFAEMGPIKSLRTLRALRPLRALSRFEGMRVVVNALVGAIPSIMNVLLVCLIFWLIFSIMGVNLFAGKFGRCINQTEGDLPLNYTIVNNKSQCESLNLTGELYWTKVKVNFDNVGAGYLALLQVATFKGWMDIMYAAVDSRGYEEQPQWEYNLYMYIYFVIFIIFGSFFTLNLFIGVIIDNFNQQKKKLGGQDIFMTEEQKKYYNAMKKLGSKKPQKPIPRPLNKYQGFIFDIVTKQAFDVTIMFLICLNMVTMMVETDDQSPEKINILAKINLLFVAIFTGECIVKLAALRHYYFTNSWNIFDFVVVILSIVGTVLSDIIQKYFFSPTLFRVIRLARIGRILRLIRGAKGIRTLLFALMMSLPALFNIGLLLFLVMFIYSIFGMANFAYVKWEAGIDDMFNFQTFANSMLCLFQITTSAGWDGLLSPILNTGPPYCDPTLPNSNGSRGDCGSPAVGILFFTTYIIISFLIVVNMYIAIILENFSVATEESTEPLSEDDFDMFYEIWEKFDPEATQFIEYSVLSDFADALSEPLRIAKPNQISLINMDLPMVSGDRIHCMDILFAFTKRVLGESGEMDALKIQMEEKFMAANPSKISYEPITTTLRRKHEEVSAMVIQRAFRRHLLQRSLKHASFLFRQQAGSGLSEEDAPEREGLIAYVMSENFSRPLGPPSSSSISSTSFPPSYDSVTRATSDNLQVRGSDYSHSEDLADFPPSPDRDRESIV
# assay-procedure: Inhibition of sodium channel blockade in CHO cells expressing human cardiac (hHI) sodium channel
value-type: pIC50
Answers are plain numbers, as −log10 of the molar value.

Here's what some known entries look like.
item-smiles	pIC50
NC(=NCCCCc1ccccc1)NC(=O)c1ccc(Cl)c(Cl)c1	4.81
Cc1ccc(C(=O)NC(N)=NCCCOc2ccccc2)cc1	5.25
CN=C(NCCCCc1ccccc1)NC(=O)c1ccc(C)cc1	5.05
Cc1ccccc1C(=O)NC(N)=NCCCCc1ccccc1	5.76
COc1ccc2[nH]cc(CCN=C(N)NC(=O)c3ccc(C)cc3)c2c1	5.75
Cc1ccc(C(=O)NC(N)=NCCc2ccc(Cl)cc2)cc1	5.07
NC(=NCCCCc1ccccc1)NC(=O)c1cccc(Cl)c1Cl	5.57
Cc1ccc(C(=O)NC(=N)NCCCc2ccccc2)cc1	5.28

Look at each molecule and report its pIC50.
1. NC(=NCCCCc1ccccc1)NC(=O)c1cccc2ccccc12
2. COc1ccc(C(=O)NC(=N)NCCCCc2ccccc2)cc1

1: 5.39; 2: 5.68

Look at each molecule and report its pIC50.
1. Cc1ccc(C(=O)NC(N)=NCCc2ccccc2)cc1
2. NC(=NCCCCc1ccccc1)NC(=O)c1c(Cl)cccc1Cl

5.25
5.27

----------
Give measured pKa for each item. Keep answers brief.
# assay-procedure: pKa value determined
# Format: physicochemical

item-smiles	pKa
N=C(N)Nc1ccccc1	10.8

Look at each molecule and report its pKa.
1. N=C(N)NC(=O)c1ccccc1
2. Cc1ccc(C(=O)NC(=N)Nc2ccc(C(C)C)cc2)cc1

1. 6.98
2. 6.35

Look at each molecule and report its pKa.
1. Cc1ccc(C(=O)NC(=N)NCCCCc2ccccc2)cc1
2. N=C(N)N

[7.09, 12.6]

----------
Give measured pIC50 for each item. Keep answers brief.
# experimental-target: Sodium channel protein type 2 subunit alpha (Homo sapiens)
# assay-procedure: Inhibition of sodium channel blockade in CHO cells expressing neuronal mammalian type IIA (CNaIIA) sodium channel
Numbers only, as −log10 of the molar value.

Here's what some known entries look like.
item-smiles	value-type	readout-value
CN=C(NCCCCc1ccccc1)NC(=O)c1ccc(C)cc1	pIC50	5.38
COc1cccc2[nH]cc(CCN=C(N)NC(=O)c3ccc(C)cc3)c12	pIC50	5.47
Cc1ccc(C(=O)NC(=N)Nc2ccc(OCc3ccccc3)cc2)cc1	pIC50	5.00

Look at each molecule and report its pIC50.
1. Cc1ccc(C(=O)NC(N)=NCCc2ccc(Cl)cc2)cc1
2. Cc1ccc(C(=O)NC(N)=NCCOc2ccccc2)cc1
3. COc1cc(NC(=N)NC(=O)c2ccc(C)cc2)cc(OC)c1OC
4. Cc1ccc(C(=O)NC(=N)NCCCc2ccccc2)cc1
5. Cc1ccc(C(=O)NC(N)=NCc2cccc3ccccc23)cc1
6. Cc1ccc(C(=O)NC(=N)N(C)c2cccc(I)c2)cc1

5.71
5.49
5.72
5.22
5.62
5.02

----------
Give measured IC50 for each item. Keep answers brief.
# experimental-target: Sodium channel protein type 5 subunit alpha (Homo sapiens, UniProt Q14524)
# assay-procedure: Inhibition of sodium channel blockade in CHO cells expressing human cardiac (hHI) sodium channel
Answers are plain numbers, in µM.

Look at each compound and report its IC50.
1. Cc1ccc(C(=O)NC(=N)NCCc2cccs2)cc1
2. COc1cccc2[nH]cc(CCN=C(N)NC(=O)c3ccc(C)cc3)c12
3. NC(=NCCCCc1ccccc1)NC(=O)c1ccc(Cl)cc1
4. NC(=NCCCCc1ccccc1)NC(=O)c1ccco1
5. Cc1ccc(C(=O)NC(N)=NCCOc2ccccc2)cc1

10.5
3.92
3.6
7.9
14.2

----------
# experimental-target: Sodium channel protein type 2 subunit alpha (Homo sapiens, UniProt Q99250)
# Sequence (Q99250 whole entry): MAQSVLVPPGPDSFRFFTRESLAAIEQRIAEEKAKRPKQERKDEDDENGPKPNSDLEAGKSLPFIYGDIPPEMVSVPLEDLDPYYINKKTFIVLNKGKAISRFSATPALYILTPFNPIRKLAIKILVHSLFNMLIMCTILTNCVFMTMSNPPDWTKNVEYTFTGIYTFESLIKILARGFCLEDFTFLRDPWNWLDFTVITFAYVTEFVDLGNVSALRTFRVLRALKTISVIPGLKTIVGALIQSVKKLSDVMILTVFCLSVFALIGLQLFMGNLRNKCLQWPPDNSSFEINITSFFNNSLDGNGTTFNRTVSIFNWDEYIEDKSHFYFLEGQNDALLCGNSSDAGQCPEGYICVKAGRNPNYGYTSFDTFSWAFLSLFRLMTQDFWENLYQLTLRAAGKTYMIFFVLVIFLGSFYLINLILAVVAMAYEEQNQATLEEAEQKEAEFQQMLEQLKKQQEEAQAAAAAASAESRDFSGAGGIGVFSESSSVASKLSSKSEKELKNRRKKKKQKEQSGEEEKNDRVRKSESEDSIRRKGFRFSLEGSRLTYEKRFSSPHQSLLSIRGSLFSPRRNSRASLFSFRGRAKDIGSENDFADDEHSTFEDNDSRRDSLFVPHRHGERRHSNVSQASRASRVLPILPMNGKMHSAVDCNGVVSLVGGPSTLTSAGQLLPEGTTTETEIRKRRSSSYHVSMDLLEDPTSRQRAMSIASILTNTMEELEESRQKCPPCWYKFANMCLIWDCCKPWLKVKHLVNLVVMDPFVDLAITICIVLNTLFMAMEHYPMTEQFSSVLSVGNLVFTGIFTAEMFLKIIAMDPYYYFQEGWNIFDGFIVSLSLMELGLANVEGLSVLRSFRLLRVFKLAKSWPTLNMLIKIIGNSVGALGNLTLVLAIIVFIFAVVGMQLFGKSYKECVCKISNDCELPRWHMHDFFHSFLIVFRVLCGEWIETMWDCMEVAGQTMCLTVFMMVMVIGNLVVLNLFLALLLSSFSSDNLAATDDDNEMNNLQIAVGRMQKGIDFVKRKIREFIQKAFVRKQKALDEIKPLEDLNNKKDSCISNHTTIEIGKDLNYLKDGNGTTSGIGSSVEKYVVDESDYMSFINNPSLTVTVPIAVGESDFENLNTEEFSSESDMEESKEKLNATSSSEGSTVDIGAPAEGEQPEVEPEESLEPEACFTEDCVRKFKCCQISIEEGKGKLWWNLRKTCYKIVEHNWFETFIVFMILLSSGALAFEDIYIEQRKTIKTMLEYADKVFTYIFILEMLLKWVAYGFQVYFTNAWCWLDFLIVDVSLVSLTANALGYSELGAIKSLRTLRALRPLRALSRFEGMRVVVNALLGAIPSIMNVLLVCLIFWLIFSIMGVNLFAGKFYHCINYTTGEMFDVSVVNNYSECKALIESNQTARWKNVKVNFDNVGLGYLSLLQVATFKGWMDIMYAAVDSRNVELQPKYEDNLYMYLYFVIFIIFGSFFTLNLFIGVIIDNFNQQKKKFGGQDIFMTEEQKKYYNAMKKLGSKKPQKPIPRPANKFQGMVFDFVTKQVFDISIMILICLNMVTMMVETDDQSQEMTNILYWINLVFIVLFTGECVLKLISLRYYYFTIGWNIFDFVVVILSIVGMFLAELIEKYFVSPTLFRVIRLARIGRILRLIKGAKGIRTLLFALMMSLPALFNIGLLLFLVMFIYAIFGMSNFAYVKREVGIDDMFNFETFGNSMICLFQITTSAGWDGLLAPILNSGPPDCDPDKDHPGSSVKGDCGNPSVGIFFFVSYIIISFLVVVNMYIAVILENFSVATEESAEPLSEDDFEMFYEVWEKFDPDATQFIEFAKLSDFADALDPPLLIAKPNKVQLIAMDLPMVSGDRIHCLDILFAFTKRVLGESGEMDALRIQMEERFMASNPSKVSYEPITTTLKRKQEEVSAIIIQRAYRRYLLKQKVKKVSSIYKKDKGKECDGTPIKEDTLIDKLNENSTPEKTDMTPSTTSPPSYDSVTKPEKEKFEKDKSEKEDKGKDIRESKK
# assay-procedure: Inhibition of sodium channel blockade in CHO cells expressing neuronal mammalian type IIA (CNaIIA) sodium channel
# Assay type: cell-based
Note to self: class labels come from recorded IC50, ranges listed here: low (below 2 µM), moderate (2 µM to below 4 µM), high (4 µM or more)

Sample answers from the record:
item-smiles	label-value
Cc1ccc(C(=O)NC(N)=NCCc2ccccc2)cc1	moderate
Cc1ccc(C(=O)NC(N)=NCCCOc2ccccc2)cc1	moderate

Please report the category associated with NC(=NCCCCc1ccccc1)NC(=O)c1ccc(Cl)cc1 , nothing else.
high

Please report the category associated with NC(=NCCCCc1ccccc1)NC(=O)c1c(Cl)cccc1Cl , nothing else.
high

Please report the category associated with NC(=NCCCCc1ccccc1)NC(=O)c1ccc(Cl)c(Cl)c1 , nothing else.
high

----------
Give measured IC50 for each item. Keep answers brief.
# experimental-target: Sodium channel protein type 2 subunit alpha (Homo sapiens)
# assay-procedure: Inhibition of sodium channel blockade in CHO cells expressing neuronal mammalian type IIA (CNaIIA) sodium channel
Answers are plain numbers, in µM.

Here's what some known entries look like.
item-smiles	IC50 (µM)
COc1ccc2[nH]cc(CCN=C(N)NC(=O)c3ccc(C)cc3)c2c1	1.76
COc1cc(C(=O)NC(N)=NCCCCc2ccccc2)cc(OC)c1OC	1.39
Cc1ccc(C(=O)NC(N)=NCc2ccccc2)cc1	3.87
Cc1ccc(C(=O)NC(=N)NCCc2cccs2)cc1	4.95
CCCCOc1ccc(C(=O)NC(N)=NCCCCc2ccccc2)cc1	0.63
Cc1ccc(C(=O)NC(=N)NCCCCc2ccccc2)cc1	1.14
Cc1ccc(C(=O)N/C(N)=N\c2ccccc2C(C)C)cc1	4.36
Cc1ccc(C(=O)NC(=N)NCCCCCc2ccccc2)cc1	2.11

Look at each molecule and report its IC50.
1. Cc1ccccc1C(=O)NC(N)=NCCCCc1ccccc1
2. Cc1ccc(C(=O)NC(=N)Nc2ccc(OC(C)C)cc2)cc1
3. COc1ccc(C(=O)NC(=N)NCCCCc2ccccc2)cc1
4. CCOc1ccc(C(=O)NC(N)=NCCCCc2ccccc2)cc1
5. Cc1ccc(C(=O)NC(=N)N2CCc3ccccc32)cc1
6. Cc1ccc(C(=O)NC(=N)Nc2cccc3ccccc23)cc1

1.2
2.02
0.82
0.76
8.81
3.29

Look at each molecule and report its IC50.
1. NC(=NCCCCc1ccccc1)NC(=O)c1cc(Cl)ccc1Cl
2. Cc1ccc(C(=O)NC(=N)Nc2ccc(C(C)C)cc2)cc1
3. CCCC/N=C(/N)NC(=O)c1ccc(C)cc1
4. NC(=NCCCCc1ccccc1)NC(=O)c1ccco1

1: 3.25; 2: 1.95; 3: 17.4; 4: 13.8

Look at each molecule and report its IC50.
1. Cc1ccc(C(=O)NC(=N)N(C)Sc2cccc(C)c2)cc1
2. Cc1ccc(C(=O)NC(N)=NCCSCc2ccccc2)cc1
3. N=C(NCCCCc1ccccc1)NC(=O)c1cccs1
4. NC(=NCCCCc1ccccc1)NC(=O)c1cccc2ccccc12
5. NC(=NCCCCc1ccccc1)NC(=O)c1cccc(Cl)c1Cl

1. 5.44
2. 3.9
3. 4.31
4. 0.86
5. 1.48

----------
Give measured pIC50 for each item. Keep answers brief.
# experimental-target: Sodium channel protein type 2 subunit alpha (Homo sapiens, UniProt Q99250)
# assay-procedure: Inhibition of sodium channel blockade in CHO cells expressing neuronal mammalian type IIA (CNaIIA) sodium channel
pIC50: −log10 of the molar value.

Here's what some known entries look like.
item-smiles	pIC50
Cc1ccc(C(=O)NC(=N)Nc2ccc(C(C)(C)C)cc2)cc1	< 4.62
Cc1ccc(C(=O)NC(N)=NCCCN(C)C)cc1	< 4.60
Cc1ccc(C(=O)NC(=N)N2CCCc3ccc(C(F)(F)F)cc32)cc1	< 4.60

Next up:
Quickly give me recorded pIC50 for Cc1ccc(C(=O)NC(N)=Nc2cc(Br)ccc2Br)cc1
< 4.60
